These data points were gathered from patent US11478551B2.

Below: a set of entries, each annotated with reported Intracellular cAMP concentration-increasing effect (%).
# measured.target: AM receptor (Homo sapiens, UniProt O60895+Q16602)
# Construct: expressed in transfected cells; host or cells: HEK293 cell line
# Sequence (Q16602 23-461): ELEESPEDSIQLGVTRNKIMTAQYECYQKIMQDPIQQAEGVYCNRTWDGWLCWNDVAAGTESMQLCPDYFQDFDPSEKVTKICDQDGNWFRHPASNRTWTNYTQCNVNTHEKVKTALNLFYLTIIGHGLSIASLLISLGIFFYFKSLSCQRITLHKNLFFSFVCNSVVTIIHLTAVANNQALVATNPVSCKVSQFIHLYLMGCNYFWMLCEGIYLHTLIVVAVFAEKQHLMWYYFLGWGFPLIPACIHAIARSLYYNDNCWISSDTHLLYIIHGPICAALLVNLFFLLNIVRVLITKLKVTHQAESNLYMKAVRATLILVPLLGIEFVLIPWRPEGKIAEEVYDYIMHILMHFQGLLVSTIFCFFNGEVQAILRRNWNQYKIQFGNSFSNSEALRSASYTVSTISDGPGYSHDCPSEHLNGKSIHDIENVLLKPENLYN
# Sequence (O60895 43-175): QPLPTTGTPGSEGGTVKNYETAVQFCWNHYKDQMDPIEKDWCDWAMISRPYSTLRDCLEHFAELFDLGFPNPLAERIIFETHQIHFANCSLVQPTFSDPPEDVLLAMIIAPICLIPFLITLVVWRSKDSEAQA
# test.method.notes: Intracellular cAMP concentration-increasing effect in HEK293 cell line caused to express an AM receptor;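 also: cAMP inside confluent receptor-expressing cells quantified by ELISA after 15 min exposure to each peptide at 10^−8 mol/L alongside 0.5 mM IBMX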
# Type: cell-based
# condition.label: 10^−8 mol/L, 15 minutes, 0.5 mM IBMX; percentage with respect to h.AM (1-52)
Positions of bridges follow the written chain, without caps; N, C: chain ends. GL‑2‑branched CH3O‑PEG (40k)‑CH2 = glycerol skeleton-containing 2-branched methoxy-PEG (40 kDa) attached via alkylamine (CH2) linkage
metric.name: Intracellular cAMP concentration-increasing effect (%)

substance: GL-2-branched CH3O-PEG (20k)-CO-^αNH-(h.AM (6-52)) ({GL‑2‑branched CH3O‑PEG (20k)‑CO}-NNFQGLRSFGCRFGTCTVQKLAHQIYQFTDKDKDNVAPRSKISPQGY-NH2; disulfide 11-16 (inferred); ends not checked) [Compound (30)]
quantity.unit: %
value: 99
--
substance: CH3O-PEG (5k)-(CH2)2—CH2-^αNH-(h.AM (6-52)) ({CH3O‑PEG (5k)‑(CH2)2—CH2}-NNFQGLRSFGCRFGTCTVQKLAHQIYQFTDKDKDNVAPRSKISPQGY-NH2; disulfide 11-16 (inferred); ends not checked) [Compound (18)]
quantity.unit: %
value: 90
--
substance: GL-2-branched CH3O-PEG (40k)-CH2-^αNH-(h.AM (6-52)) ({GL‑2‑branched CH3O‑PEG (40k)‑CH2}-NNFQGLRSFGCRFGTCTVQKLAHQIYQFTDKDKDNVAPRSKISPQGY-NH2; disulfide 11-16 (inferred); ends not checked) [Compound (29)]
quantity.unit: %
value: 77
--
substance: GL-4-branched CH3O-PEG (40k)-CO-^αNH-(h.AM (6-52)) ({GL‑4‑branched CH3O‑PEG (40k)‑CO}-NNFQGLRSFGCRFGTCTVQKLAHQIYQFTDKDKDNVAPRSKISPQGY-NH2; disulfide 11-16 (inferred); ends not checked) [Compound (34)]
quantity.unit: %
value: 83
